Please provide measured CC50 at 6 h for the entries that follow.
- protocol_description: MemTox membrane leakage (AK / α-GST)
- Format: cell-based
- experimental_setup: rat, NRK cells, 6 HR, read-out: GST TC50
Output spec: scalar in µM, unitless text.

CC[C@@]1(O)C(=O)OCc2c1cc1n(c2=O)Cc2cc3ccccc3nc2-1 yielded CC50 at 6 h of 300

C=C(C)[C@H]1Cc2c(ccc3c2O[C@@H]2COc4cc(OC)c(OC)cc4[C@@H]2C3=O)O1 yielded CC50 at 6 h of 10

* * *

- protocol_description: MTT reduction
- Type: cell-based
- experimental_setup: rat, NRK cells, 24 HR, read-out: MTT TC50
endpoint: CC50 at 24 h (µM)
Output spec: scalar in µM, unitless text.

C=C(C)[C@H]1Cc2c(ccc3c2O[C@@H]2COc4cc(OC)c(OC)cc4[C@@H]2C3=O)O1 yielded CC50 at 24 h of 10

CC[C@@]1(O)C(=O)OCc2c1cc1n(c2=O)Cc2cc3ccccc3nc2-1 yielded CC50 at 24 h of 100

* * *

- protocol_description: Intracellular total glutathione (GSH)
- Assay type: cell-based, rat
- experimental_setup: rat
endpoint: CC50 at 6 h (µM)
Output spec: scalar in µM, unitless text.

COc1cccc2c1C(=O)c1c(O)c3c(c(O)c1C2=O)C[C@@](O)(C(=O)CO)C[C@@H]3O[C@H]1C[C@H](N)[C@H](O)[C@H](C)O1 [ADRIAMYCIN, Adriamycin] yielded CC50 at 6 h of 23

* * *

- protocol_description: Cell number (propidium iodide)
- Format: cell-based
- experimental_setup: human, HUVEC, read-out: Cell Number TC50
endpoint: CC50 at 24 h (µM)
Output spec: scalar in µM, unitless text.

CC[C@@]1(O)C(=O)OCc2c1cc1n(c2=O)Cc2cc3ccccc3nc2-1 yielded CC50 at 24 h of 85

* * *

- protocol_description: BrdU incorporation
- Assay type: cell-based, human
- experimental_setup: human, SK-MEL28 cells; SK-MEL28, 72 HR, run #2; read-out: BrdU TC50
- Protocol: Bromodexoyurine (BrDU) Incorporation: This assay was used to monitor cumulative changes in DNA replication. […] Fluorescence was measured using a Packard Fusion or equivalent plate reader at 485 nm excitation and 530 nm emission. Bromodexoyurine (BrDU) Incorporation: After incubation, the test compound/BrDU solution was removed and cells were fixed. A solution containing mouse monoclonal anti-BrDU (FITC) was added and fluorescence was measured. […]
endpoint: CC50 at 72 h (nM)
Output spec: scalar in nM, unitless text.

CC[C@@]1(O)C(=O)OCc2c1cc1n(c2=O)Cc2cc3ccccc3nc2-1 [CAMPTOTHECIN, Camptothecin] yielded CC50 at 72 h of 200

* * *

- protocol_description: Intracellular ATP levels
- Type: cell-based, rat
- experimental_setup: rat
endpoint: CC50 at 3 h

COc1cccc2c1C(=O)c1c(O)c3c(c(O)c1C2=O)C[C@@](O)(C(=O)CO)C[C@@H]3O[C@H]1C[C@H](N)[C@H](O)[C@H](C)O1 yielded CC50 at 3 h of 62 µM

* * *

- protocol_description: BrdU incorporation
- Type: cell-based, human
- experimental_setup: human; SK-MEL28, 24 HR, run #2; read-out: BrdU TC50
endpoint: CC50 at 24 h (µM)
Output spec: scalar in µM, unitless text.

C=C(C)[C@H]1Cc2c(ccc3c2O[C@@H]2COc4cc(OC)c(OC)cc4[C@@H]2C3=O)O1 [ROTENONE, Rotenone] yielded CC50 at 24 h of 9
